Target: HCV NS3 protease genotype 3a (3A-1) (Hepatitis C virus genotype 3a)
Assay: HCV NS3 protease time-resolved fluorescence (TRF) assay, genotype 3a
Assay type: biochemical
Details: Ki 3a
Source text: The HCV NS3 protease inhibitory activity of the present compounds may be tested using assays known in the art. One such assay is HCV NS3 protease time-resolved fluorescence (TRF) assay as described below and in International Patent Application Publication No. WO2006/102087. […] Product fluorescence is detected using either a VICTOR V2 or FUSION fluorophotometer (Perkin Elmer Life and Analytical Sciences) with excitation at 340 nm and emission at 615 nm with a 400 μs delay. […]
Items are presented alongside their recorded Ki.
A complete answer gives the number and then names the unit.

C=C[C@@H]1C[C@]1(NC(=O)[C@@H]1C[C@@H]2CN1C(=O)[C@H](C(C)(C)C)NC(=O)O[C@@H]1C[C@H]1CCCCCc1c(nc3ccccc3c1OC1CC3CCC(C1)N3CCOC)O2)C(=O)NS(=O)(=O)C1(C)CC1 (single isomer, unassigned) [Example 276]    0.14 nM

Fill in reported Ki for this entry: `C=C[C@@H]1C[C@]1(NC(=O)[C@@H]1C[C@@H]2CN1C(=O)[C@H](C(C)(C)C)NC(=O)O[C@@H]1CCC[C@H]1CCCCCc1c(nc3ccccc3c1OCCN1CCCC1)O2)C(=O)NS(=O)(=O)C1(COC)CC1` 3.2 nM

###

Target: HCV NS3 protease genotype 3a (3A-1) (Hepatitis C virus genotype 3a)
Assay: HCV NS3 protease time-resolved fluorescence (TRF) assay, genotype 3a
Format: biochemical
Details: Ki 3a
Where a name gives a salt, the structure may show the parent alone.
Values of Ki strictly less than 2 nM map to true, and values of at least 2 nM map to false.

C=C[C@@H]1C[C@]1(NC(=O)[C@@H]1C[C@@H]2CN1C(=O)[C@H](C(C)(C)C)NC(=O)O[C@@H]1C[C@H]1CCCCCc1c(nc3ccccc3c1OCCCN(C)C(C)C(O)c1ccccc1)O2)C(=O)NS(=O)(=O)C1(C)CC1 (some centres unmarked) [Example 190]    true
C=C[C@@H]1C[C@]1(NC(=O)[C@@H]1C[C@@H]2CN1C(=O)[C@H](C1(C)CCCCC1)NC(=O)O[C@@H]1C[C@H]1CCCCCc1c(nc3ccccc3c1OC1CCN(C(=O)OC(C)(C)C)CC1)O2)C(=O)NS(=O)(=O)C1(C)CC1 [Example 267]    false
C=C[C@@H]1C[C@]1(NC(=O)[C@@H]1C[C@@H]2CN1C(=O)[C@H](C(C)(C)C)NC(=O)O[C@@H]1C[C@H]1CCCCCc1c(nc3ccccc3c1OCC1CCN(C)C1)O2)C(=O)NS(=O)(=O)C1(C)CC1 (some centres unmarked) [Example 141]    true
C=C[C@@H]1C[C@]1(NC(=O)[C@@H]1C[C@@H]2CN1C(=O)[C@H](C1CCCCC1)NC(=O)O[C@@H]1C[C@H]1CCCCCc1c(nc3ccccc3c1OCCCNC1CC(F)(F)C1)O2)C(=O)NS(=O)(=O)C1(C)CC1 [Example 243]    false
C=C[C@@H]1C[C@]1(NC(=O)[C@@H]1C[C@@H]2CN1C(=O)[C@H](C(C)(C)C)NC(=O)O[C@@H]1C[C@H]1CCCCCc1c(nc3ccccc3c1OCCCN(C)Cc1n[nH]c(=O)[nH]1)O2)C(=O)NS(=O)(=O)C1(C)CC1 [Example 199]    true

Lab note: Ki threshold 2 nM. Does this molecule come in strictly under it? C=C[C@@H]1C[C@]1(NC(=O)[C@@H]1C[C@@H]2CN1C(=O)[C@H](C1CCCCC1)NC(=O)O[C@@H]1C[C@H]1CCCCCc1c(nc3ccccc3c1OC1CCCN(C)C1)O2)C(=O)NS(=O)(=O)C1(C)CC1 (some centres unmarked) [Example 291, formate] true

Lab note: Ki threshold 2 nM. Does this molecule come in strictly under it? C=C[C@@H]1C[C@]1(NC(=O)[C@@H]1C[C@@H]2CN1C(=O)[C@H](C1CCCCC1)NC(=O)O[C@@H]1C[C@H]1CCCCCc1c(nc3ccccc3c1OC1CC3COCC(C1)N3CC)O2)C(=O)NS(=O)(=O)C1(C)CC1 (some centres unmarked) [Example 290, formate] true

Lab note: Ki threshold 2 nM. Does this molecule come in strictly under it? C=C[C@@H]1C[C@]1(NC(=O)[C@@H]1C[C@@H]2CN1C(=O)[C@H](C1CCCCC1)NC(=O)O[C@@H]1C[C@H]1CCCCCc1c(nc3ccccc3c1OC1CC3CCC(C1)N3CCOC)O2)C(=O)NS(=O)(=O)C1(C)CC1 (some centres unmarked) [Example 284] true

###

Target: HCV NS3 protease genotype 3a (3A-1) (Hepatitis C virus genotype 3a, UniProt Q81258)
Assay: HCV NS3 protease time-resolved fluorescence (TRF) assay, genotype 3a
Type: biochemical
Conditions: Ki 3a
assay-endpoint: log10 Ki (log10 of the value in nM)
Log scale reminder: Ki in nM, then log10 taken.

Below, each entry is followed by its recorded log10 Ki result.
C=C[C@@H]1C[C@]1(NC(=O)[C@@H]1C[C@@H]2CN1C(=O)[C@H](C1CCCC1)NC(=O)O[C@H]1C[C@@H]1CC/C=C/Cc1c(nc3ccccc3c1OC)O2)C(=O)NS(=O)(=O)C1CC1    2.53
C=C[C@@H]1C[C@]1(NC(=O)[C@@H]1C[C@@H]2CN1C(=O)[C@H](C1CCCC1)NC(=O)O[C@@H]1CCC[C@H]1CC/C=C/Cc1c(nc3ccccc3c1O)O2)C(=O)NS(=O)(=O)C1(C)CC1    -0.19
C=C[C@@H]1C[C@]1(NC(=O)[C@@H]1C[C@@H]2CN1C(=O)[C@H](C1CCCCC1)NC(=O)O[C@@H]1C[C@H]1CCCCCc1c(nc3c(F)cccc3c1OC1CCN(C)CC1)O2)C(=O)NS(=O)(=O)C1(C)CC1    -0.29
C=C[C@@H]1C[C@]1(NC(=O)[C@@H]1C[C@@H]2CN1C(=O)[C@H](C(C)(C)C)NC(=O)O[C@@H]1C[C@H]1CCCCCc1c(nc3ccccc3c1-c1ccncc1)O2)C(=O)NS(=O)(=O)C1(C)CC1    2.47
C=C[C@@H]1C[C@]1(NC(=O)[C@@H]1C[C@@H]2CN1C(=O)[C@H](C(C)(C)C)NC(=O)O[C@@H]1C[C@H]1CCCCCc1c(nc3ccccc3c1OC1C3COCC1CN(C(=O)OC(C)(C)C)C3)O2)C(=O)NS(=O)(=O)C1(C)CC1 (single isomer, unassigned) [Example 254]    1.68
C=C[C@@H]1C[C@]1(NC(=O)[C@@H]1C[C@@H]2CN1C(=O)[C@H](C1CCCC1)NC(=O)O[C@@H]1CCC[C@H]1CC/C=C/Cc1c(nc3ccccc3c1OCCOC)O2)C(=O)NS(=O)(=O)C1CC1    0.60
C=C[C@@H]1C[C@]1(NC(=O)[C@@H]1C[C@@H]2CN1C(=O)[C@H](C(C)(C)C)NC(=O)O[C@@H]1C[C@H]1CCCCCc1c(nc3ccccc3c1OC1CCN(CC)CC1)O2)C(=O)NS(=O)(=O)C1(C)CC1    -0.60
C=C[C@@H]1C[C@]1(NC(=O)[C@@H]1C[C@@H]2CN1C(=O)[C@H](C(C)(C)C)NC(=O)O[C@@H]1C[C@H]1CCCCCc1c(nc3c(F)cccc3c1OCCN1CCCCC1)O2)C(=O)NS(=O)(=O)C1(C)CC1    0.58

// next entry
Fill in reported log10 Ki for this entry: `C=C[C@@H]1C[C@]1(NC(=O)[C@@H]1C[C@@H]2CN1C(=O)[C@H](C1CCCC1)NC(=O)O[C@@H]1CCC[C@H]1CC/C=C/Cc1c(nc3ccccc3c1OCc1ccccc1)O2)C(=O)NS(=O)(=O)C1(C)CC1` 1.56

###

Target: HCV genotype 1b (BK) NS3 modified enzyme with a R155K mutation (Hepatitis C virus genotype 1b, UniProt P26663, R1181K)
Construct: HCV genotype 1b (BK) NS3 modified enzyme
Experiment: HCV NS3 protease time-resolved fluorescence (TRF) assay, genotype 1b R155K
Format: biochemical
Conditions: Ki 1b R155K, genotype 1b (BK) NS3 R155K; single value
assay-endpoint: pKi
Interpret pKi as the negative base-10 log of the concentration measured in mol/L.

Below, each entry is followed by its recorded pKi result.
C=C[C@@H]1C[C@]1(NC(=O)[C@@H]1C[C@@H]2CN1C(=O)[C@H](C(C)(C)C)NC(=O)O[C@]1(C)C[C@H]1CCCCCc1c(nc3ccccc3c1OCCN1CCOCC1)O2)C(=O)NS(=O)(=O)C1(C)CC1    10.05
CC1(S(=O)(=O)NC(=O)[C@@]23C[C@H]2/C=C\CCCCC[C@@H]2NC(=O)O[C@@H]4C[C@H]4CCCCCc4c(nc5ccccc5c4OCCN4CCCC4)O[C@@H]4C[C@@H](C(=O)N3)N(C4)C2=O)CC1    10.08
C=C[C@@H]1C[C@]1(NC(=O)[C@@H]1C[C@@H]2CN1C(=O)[C@H](C(C)(C)C)NC(=O)O[C@@H]1C[C@H]1CCCCCc1c(nc3ccccc3c1OCCCN(C)Cc1ncc(C)[nH]1)O2)C(=O)NS(=O)(=O)C1(C)CC1    10.10
C=C[C@@H]1C[C@]1(NC(=O)[C@@H]1C[C@@H]2CN1C(=O)[C@H](C(C)(C)C)NC(=O)O[C@@H]1C[C@H]1CCCCCc1c(nc3cc(F)ccc3c1OCCCN1CCCC1)O2)C(=O)NS(=O)(=O)C1(C)CC1    10.13
C=C[C@@H]1C[C@]1(NC(=O)[C@@H]1C[C@@H]2CN1C(=O)[C@H](C(C)(C)C)NC(=O)O[C@H]1C[C@@H]1CCCCCc1c(nc3ccncc3c1OC1CCN(C)CC1)O2)C(=O)NS(=O)(=O)C1(C)CC1    10.09
CC[C@@H]1C[C@]1(NC(=O)[C@@H]1C[C@@H]2CN1C(=O)[C@H](C1CCCC1)NC(=O)O[C@@H]1CCC[C@H]1CC/C=C/Cc1c(nc3ccccc3c1OC)O2)C(=O)NS(=O)(=O)C1CC1    9.23
C=C[C@@H]1C[C@]1(NC(=O)[C@@H]1C[C@@H]2CN1C(=O)[C@H](C1CCCC1)NC(=O)O[C@@H]1CCC[C@H]1CC/C=C/Cc1c(nc3ccccc3c1OCCCN1CCCC(C)(C)C1)O2)C(=O)NS(=O)(=O)C1CC1    8.80
CCOc1c2c(nc3ccccc13)O[C@@H]1C[C@@H](C(=O)N[C@]3(C(=O)NS(=O)(=O)C4CC4)C[C@H]3CC)N(C1)C(=O)[C@H](C1CCCC1)NC(=O)O[C@@H]1CCC[C@H]1CC/C=C/C2    8.57
C=C[C@@H]1C[C@]1(NC(=O)[C@@H]1C[C@@H]2CN1C(=O)[C@H](C(C)(C)C)NC(=O)O[C@@H]1C[C@H]1CCCCCc1c(nc3ccccc3c1OCCCN1CCC(C)(O)C1)O2)C(=O)NS(=O)(=O)C1(C)CC1 (some centres unmarked)    10.25
C=C[C@@H]1C[C@]1(NC(=O)[C@@H]1C[C@@H]2CN1C(=O)[C@H](C1CCCC1)NC(=O)O[C@@H]1CCC[C@H]1CC/C=C\Cc1c(nc3ccccc3c1OCC)O2)C(=O)NS(=O)(=O)C1CC1    8.85

Fill in reported pKi for this entry: `C=C[C@@H]1C[C@]1(NC(=O)[C@@H]1C[C@@H]2CN1C(=O)[C@H](C(C)(C)C)NC(=O)O[C@@H]1C[C@H]1CCCCCc1c(nc3ccccc3c1OCCCN1CC3(COC3)C1)O2)C(=O)NS(=O)(=O)C1(C)CC1` 10.49

Fill in reported pKi for this entry: C=C[C@@H]1C[C@]1(NC(=O)[C@@H]1C[C@@H]2CN1C(=O)[C@H](C(C)(C)C)NC(=O)O[C@@H]1C[C@H]1CCCCCc1c(nc3ccccc3c1OCCCN1CCCCC1c1nc3cc(F)ccc3[nH]1)O2)C(=O)NS(=O)(=O)C1(C)CC1 (some centres unmarked) 9.89

Fill in reported pKi for this entry: `C=C[C@@H]1C[C@]1(NC(=O)[C@@H]1C[C@@H]2CN1C(=O)[C@H](C1CCCC1)NC(=O)O[C@@H]1CCC[C@H]1CC/C=C/Cc1c(nc3ccccc3c1OC)O2)C(=O)NS(=O)(=O)C1CC1` 9.96

Fill in reported pKi for this entry: `C=C[C@@H]1C[C@]1(NC(=O)[C@@H]1C[C@@H]2CN1C(=O)[C@H](C(C)(C)C)NC(=O)O[C@@H]1CCC[C@H]1CC/C=C/Cc1c(nc3ccccc3c1OCCCN1CCCC1=O)O2)C(=O)NS(=O)(=O)C1(C)CC1` 10.15

Fill in reported pKi for this entry: `C=C[C@@H]1C[C@]1(NC(=O)[C@@H]1C[C@@H]2CN1C(=O)[C@H](C(C)(C)C)NC(=O)O[C@@H]1C[C@H]1CCCCCc1c(nc3ccccc3c1OCCCN1CC3CCC1C3)O2)C(=O)NS(=O)(=O)C1(C)CC1` 10.00

Fill in reported pKi for this entry: `C=C[C@@H]1C[C@]1(NC(=O)[C@@H]1C[C@@H]2CN1C(=O)[C@H](C(C)(C)C)NC(=O)O[C@@H]1C[C@H]1CCCCCc1c(nc3cc(C)ccc3c1OCCCN1CCCC1)O2)C(=O)NS(=O)(=O)C1(C)CC1` 10.27

Fill in reported pKi for this entry: `C=C[C@@H]1C[C@]1(NC(=O)[C@@H]1C[C@@H]2CN1C(=O)[C@H](C1CCCC1)NC(=O)O[C@@H]1CCC[C@H]1CC/C=C/Cc1c(nc3ccccc3c1OCCOC)O2)C(=O)NS(=O)(=O)C1CC1` 9.82
